test method notes: p53 small molecule agonists, cell-based qHTS assay with human liver microsomes: qHTS cell viability counter screen (AID 1963579); also: nearly all actives have a fitted effect of over 45% in size
particulars: p53RE-bla HCT-116 viability, ATP luminescence, 16 h, HLM; series mostly up to 66 µM
Results filed as inconclusive are left out. Activity calls are given as the source filed them. Calls follow the shape of the full dose curve.
Mark one answer only. Choices: active, inactive

Use the examples below as a reference point.
{"entry smiles": "CCc1ccc(C(c2ccc(CC)cc2)C(Cl)Cl)cc1", "group": "inactive"}
{"entry smiles": "C/C=C1\\[C@H]2C=C(C)C[C@]1(N)c1ccc(=O)[nH]c1C2", "group": "inactive"}
{"entry smiles": "CC(C)c1ccccc1N", "group": "inactive"}
{"entry smiles": "CC(C)(C)C(=O)CCc1ccc(Cl)cc1", "group": "inactive"}
{"entry smiles": "O=C(O)CCCCCCCCCC(=O)O", "group": "inactive"}
{"entry smiles": "CC1(C)[C@@H](OC(=O)CCC(=O)O)CC[C@]2(C)[C@H]3C(=O)C=C4[C@@H]5C[C@@](C)(C(=O)O)CC[C@]5(C)CC[C@@]4(C)[C@]3(C)CC[C@@H]12", "group": "inactive"}
{"entry smiles": "Cc1cccc(Br)c1", "group": "active"}
{"entry smiles": "CC(=O)c1ccc2c(c1)N(CCCN(C)C)c1ccccc1S2", "group": "inactive"}
{"entry smiles": "CCN1CCN(C(=O)N[C@@H](C(=O)N[C@@H]2C(=O)N3[C@@H]2SC(C)(C)[C@H]3C(=O)O)c2ccccc2)C(=O)C1=O", "group": "inactive"}
{"entry smiles": "CCN1CCN(C(=O)N[C@@H](C(=O)N[C@@H]2C(=O)N3C(C(=O)O)=C(CSc4nnnn4C)CS[C@H]23)c2ccc(O)cc2)C(=O)C1=O", "group": "inactive"}

Attention now shifts to the item below.
**Query** Test call, this compound: CC(=O)c1ccc2c(c1)N(CCCN1CCC(CCO)CC1)c1ccccc1S2
**Result** inactive

###

assay system: 5-hydroxytryptamine receptor 2A (Homo sapiens) (UniProt P28223)
Sequence (P28223 whole entry, looked up): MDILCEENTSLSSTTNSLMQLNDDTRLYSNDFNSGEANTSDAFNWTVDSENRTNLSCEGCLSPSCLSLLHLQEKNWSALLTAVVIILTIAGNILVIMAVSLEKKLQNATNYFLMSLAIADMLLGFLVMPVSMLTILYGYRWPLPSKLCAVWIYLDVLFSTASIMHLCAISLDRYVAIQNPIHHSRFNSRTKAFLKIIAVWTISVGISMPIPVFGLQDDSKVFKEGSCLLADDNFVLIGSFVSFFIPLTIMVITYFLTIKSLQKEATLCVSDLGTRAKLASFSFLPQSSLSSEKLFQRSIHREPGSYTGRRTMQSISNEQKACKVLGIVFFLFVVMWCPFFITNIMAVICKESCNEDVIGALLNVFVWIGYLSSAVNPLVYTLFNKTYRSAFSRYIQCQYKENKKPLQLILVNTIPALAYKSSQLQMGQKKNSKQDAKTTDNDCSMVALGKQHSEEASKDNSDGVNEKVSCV
test method notes: 5-hydroxytryptamine receptor 2A (HTR2A) small molecule agonists, cell-based qHTS assay (AID 1963587); also: nearly all actives have a fitted effect of over 30% in size
particulars: HTR2A-CHO cells, calcium flux fluorescence, agonist mode; series mostly up to 76.8 µM
Records with an inconclusive call do not appear. Activity calls are given as the source filed them. The call rests on the fitted dose curve.
Pick from 1.0 (active), 0.0 (inactive) when you respond.

{"compound": "C[C@@H](Oc1ccc(CNC(=O)c2cccnc2Oc2ccc3c(c2)OCO3)c(F)c1)C(=O)O", "group": 0.0}
{"compound": "CC(C)c1ccccc1", "group": 0.0}
{"compound": "CCCCC/C(=C\\c1ccccc1)CO", "group": 1.0}
{"compound": "COc1ccc(C2CNC(=O)C2)cc1OC1CCCC1 (stereo unspecified)", "group": 0.0}
{"compound": "CCCCCCCCCCCCN1CCCC1=O", "group": 0.0}

**Query** Could you kindly confirm the outcome this assay logged for C/C=C(\C)C(C)=O ?
**Result** 0.0

**Query** Also need O=C1[C@@H]2[C@H]3CC[C@H](C3)[C@@H]2C(=O)N1CCCCN1CCN(c2ncccn2)CC1 , thanks.
**Result** 0.0

**Query** Then what about the compound Cc1c(Cl)c(=O)oc2cc(O)ccc12 ?
**Result** 0.0

**Query** Note, next up: C=C[Si](OC(C)=O)(OC(C)=O)OC(C)=O
**Result** 0.0

**Query** Try the compound COC(=O)C1=C(C)NC(C)=C(C(=O)OCCCN2CCC(c3ccccc3)(c3ccccc3)CC2)C1c1cccc([N+](=O)[O-])c1 (stereo unspecified)
**Result** 0.0

###

test method notes: Nuclear factor erythroid 2-related factor 2/antioxidant responsive element (Nrf2/ARE) small molecule agonists: qHTS cell viability counter screen in human keratinocytes (AID 1919968); also: nearly all actives have a fitted effect of over 55% in size
particulars: KeratinoSens HaCaT ARE cells viability, CellTiter-Fluor, 24 h; series mostly up to 92.4 µM
Inconclusive results are not listed. The source made the active and inactive calls. Calls follow the shape of the dose curve; as a rule, active = well fitted cell-killing curve with a large enough effect in the repeat runs; inconclusive = weak or mixed curves, or effect the other way; inactive = flat fitted curve, though single readings scatter.
Respond only with the outcome that fits, drawn from Y (active), N (inactive)

// below: answered compounds
{"compound": "COc1cc(C(=O)OCCCN2CCCN(CCCOC(=O)c3cc(OC)c(OC)c(OC)c3)CC2)cc(OC)c1OC", "group": "N"}
{"compound": "CC(NCCC(c1ccccc1)c1ccccc1)c1ccccc1 (stereo not given)", "group": "Y"}
{"compound": "c1cc(C(c2ccc(OCC3CO3)cc2)c2ccc(OCC3CO3)cc2)ccc1OCC1CO1 (stereo not given)", "group": "Y"}
{"compound": "C=CC(=O)OCCn1c(=O)n(CCOC(=O)C=C)c(=O)n(CCOC(=O)C=C)c1=O", "group": "Y"}

**Query** State the result this test recorded for CCCCCOC(=O)Nc1nc(=O)n([C@@H]2O[C@H](C)[C@@H](O)[C@H]2O)cc1F .
**Result** N

###

assay system: KiSS-1 receptor (Homo sapiens) (UniProt Q969F8)
Sequence (Q969F8 whole entry, looked up): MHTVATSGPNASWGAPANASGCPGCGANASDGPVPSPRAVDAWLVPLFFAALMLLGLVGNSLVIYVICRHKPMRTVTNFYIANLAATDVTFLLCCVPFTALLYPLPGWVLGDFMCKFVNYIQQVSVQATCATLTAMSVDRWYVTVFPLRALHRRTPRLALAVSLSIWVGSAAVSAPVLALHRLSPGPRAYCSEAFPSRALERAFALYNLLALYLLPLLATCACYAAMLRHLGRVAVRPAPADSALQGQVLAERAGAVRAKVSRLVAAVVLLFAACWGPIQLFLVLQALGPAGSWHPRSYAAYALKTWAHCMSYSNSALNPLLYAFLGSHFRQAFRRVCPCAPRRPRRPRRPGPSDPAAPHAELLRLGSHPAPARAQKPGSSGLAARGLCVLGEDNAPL
test method notes: Human kisspeptin (KISS1R) small molecule agonists, calcium flux assay in KISS1R-HEK293 cells (AID 1920064)
particulars: KISS1R-HEK293, calcium flux fluorescence, agonist; series mostly up to 76.8 µM
The source made the active and inactive calls. The call rests on the fitted dose curve; in most records, active means well fitted activation curve with a large enough effect in the repeat runs; inconclusive means weak or mixed curves; inactive means flat fitted curve, though single readings scatter.
measured quantity: activation

{"compound": "CCCCCCCC/C=C\\CCCCCCCC(=O)OCCO", "result": "inactive"}
{"compound": "CC(C)C1CCC(C(=O)N[C@H](Cc2ccccc2)C(=O)O)CC1 (some centres not stated)", "result": "inactive"}
{"compound": "C=C(C)C1CCC(C)(O)CC1 (configuration not stated)", "result": "inactive"}
{"compound": "CC(CN)CC(C)(C)CCN (configuration not stated)", "result": "inactive"}
{"compound": "Cc1cc(O)c(Cl)c(C)c1Cl", "result": "inactive"}
{"compound": "NC(Cc1c[nH]c2ccccc12)C(=O)O (configuration not stated)", "result": "inactive"}

Would you kindly look at the next entry?
**Query** # input compound: Oc1cc2ccccc2c2ccccc12 ; wanted: its activation
**Result** inactive

###

assay system: Gonadotropin-releasing hormone receptor (Homo sapiens)
test method notes: Human gonadotropin-releasing hormone receptor (GnRHR) small molecule agonists, calcium flux assay in GnRHR-HEK293 cells (AID 1920063); also: nearly all actives have a fitted effect of over 35% in size
particulars: calcium flux fluorescence, agonist mode; series mostly up to 57.6 µM
Source text: National Center for Advancing Translational Sciences [NCATS] Division of Preclinical Innovation [DPI] U.S. Environmental Protection Agency [EPA] National Institutes of Environmental Health Sciences [NIEHS] National Toxicology Program [NTP] U.S. Food and Drug Administration [FDA] […] GnRHR-HEK293 cells developed by Codex Corp contain human GnRHR reporter gene, which was stably integrated into HEK 293 cells. The compound activation can be detected by fluorescence intensity via calcium flux assay. […]
Activity calls are given as the source filed them. Calls follow the shape of the full dose curve.
measured quantity: activity change

Look over these answered cases.
{"compound": "CNC(C)=O", "result": "inactive"}
{"compound": "O=C1C=CC(=O)N1", "result": "inactive"}
{"compound": "O=C(/C=C/c1ccc(O)c(O)c1)O[C@@H](C(=O)O)[C@@H](OC(=O)/C=C/c1ccc(O)c(O)c1)C(=O)O", "result": "inactive"}
{"compound": "C=CCOC(=O)c1ccc(C(=O)OCC=C)c(C(=O)OCC=C)c1", "result": "inactive"}
{"compound": "C=CC(=O)NC(C)(C)C", "result": "inactive"}
{"compound": "CC(=O)OCC(=O)[C@@]1(O)CC[C@H]2[C@@H]3CCC4=CC(=O)CC[C@]4(C)[C@H]3C(=O)C[C@@]21C", "result": "inactive"}

**Query** Lab note: need activity change with Gonadotropin-releasing hormone receptor (Homo sapiens) for entry Cc1ccc(Nc2nccc(N(C)c3ccc4c(C)n(C)nc4c3)n2)cc1S(N)(=O)=O , please look it up.
**Result** inactive

**Query** Now the compound CC(Cc1ccccc1)(NC(=O)CN)c1ccccc1 (stereo unspecified)
**Result** inactive

**Query** Now the same for C=C(C)C(=O)OCc1ccccc1
**Result** inactive

**Query** Another compound to check: Cc1ccc(N/N=c2\c(=O)cc/c(=N\Nc3ccc(S(=O)(=O)O)cc3)c2=O)c(C)c1
**Result** inactive

**Query** // next record COC(=O)c1ccc(C(=O)OC)c(C(=O)OC)c1
**Result** inactive

###

test method notes: p53 small molecule agonists, cell-based qHTS assay with rat liver microsomes: qHTS cell viability counter screen (AID 1963580); also: nearly all actives have a fitted effect of over 45% in size
particulars: p53RE-bla HCT-116 + rat microsomes, ATP viability, 16 h; series mostly up to 66 µM
Inconclusive results are not listed. Calls of active or inactive are those of the source. The call rests on the fitted dose curve.
I would appreciate it if you answered using one of these outcomes: active, inactive

Example results:
{"compound": "Oc1ccc2c(c1)Cc1ccccc1-2", "group": "inactive"}
{"compound": "CCCc1ccc(OCC(=O)N2CCN(C(=O)COc3ccc(CCC)cc3OC)CC2)c(OC)c1", "group": "inactive"}
{"compound": "CCCCCSCCCCC", "group": "inactive"}
{"compound": "CC(=O)Oc1cccc(C)c1", "group": "inactive"}
{"compound": "CCCCOC(=O)CO", "group": "inactive"}

**Query** Check the results log: what was the call for COc1nc(C)nc(Cl)c1NC1=NCCN1 ?
**Result** inactive

**Query** Same thing, different compound: CCn1nc(C)c2c1C(=O)NCC(c1ccc(O)cc1)=N2
**Result** inactive

Values compiled from PubChem BioAssay (Tox21).
